Tested on: SNB-75
assay-method-text: NCI tumour cell line growth inhibition, 48 h
Activity calls are given as the source filed them. Cut-off read from the data, not from the text of the source: active = GI50 up to about 1.1 µM and inactive = higher.
Would you mind answering with one of these outcomes? active, inactive

CNC1C(OC2C(OC3C(O)C(O)C(O)C(O)C3O)OC(C)C2(O)CO)OC(CO)C(O)C1O.N=C(N)N.NC(=O)O (stereo not given) ... inactive
c1ccc(/N=C(/Nc2ccccc2)N2CCCCC2)cc1 ... inactive
O=[N+]([O-])c1ccc2c(c1)=[N+]([O-])C1(CCCCC1)[N+]=2[O-] ... inactive

How was c1ccc2c(c1)N[C@@H]1c3[nH]c4ccccc4c3CC[C@H]21 classified in this test? inactive

---

Test system: DU-145
assay-method-text: NCI tumour cell line growth inhibition, 48 h
Calls of active or inactive are those of the source. No stated cut-off is given here; in the data, active = GI50 up to about 1.1 µM and inactive = higher.
measurement-type: GI50

Some molecules with recorded GI50:
O=[N+]([O-])c1ccc2c(c1)/C(=N/N=C1c3ccccc3Cc3ccccc31)c1cc([N+](=O)[O-])cc([N+](=O)[O-])c1-2 ... 5.82 µM (inactive)
O=C1c2ccccc2-c2nnc3c(c21)Cc1ccccc1C3 ... > 10 µM (inactive)
SC1=NNC2(C(Cl)=N1)c1ccccc1-c1ccccc12 ... > 10 µM (inactive)
Cc1ccccc1/N=C/N(C)C ... 44.2 µM (inactive)

Request the reported GI50 associated with CC1(C)CN=C(c2ccc3ccccc3c2O)N1 > 100 µM (inactive)

Ok, now NNc1[nH]c(=S)[nH]c1C(N)=O > 100 µM (inactive)

Ok, now COc1ccc2c(=O)c(-c3cc4c(cc3OC)OCO4)coc2c1 > 100 µM (inactive)

Ok, now CC(NC(CC12CC3CC(CC(C3)C1)C2)C(N)=O)c1ccccc1 (stereo not given) 24.7 µM (inactive)

Ok, now C[C@@H](c1ccccc1)n1c(N)c(-c2ccccn2)c2ccc([N+](=O)[O-])cc2c1=O 31.8 µM (inactive)

Ok, now COC1/C=C/C(C)C(C(C)C(OC)C(C)CCC(=O)C(C)C(CCC(=O)O)OC)OC(=O)/C=C/C=C(\C)CC(OC)CC2=CC(=O)O[C@@H](C(C)C(OC)CC(OC)/C=C/C(C)C(OC)C1)[C@H]2O (stereo not given in full) 1.71 µM (inactive)

---

Test system: UACC-62
assay-method-text: NCI tumour cell line growth inhibition, 48 h
Activity calls are given as the source filed them. Rule as the data show it: active = GI50 up to about 1.1 µM and inactive = higher.
Would you mind answering with one of these outcomes? 1 (active), -1 (inactive)

A selection of reference data follows.
COC(=O)[C@]1(c2cc3ccccc3[nH]2)CC2CN(CC(=O)N(C)OC)C1CC2(OC)OC (stereo partly drawn) ... -1
Oc1ccc(Cl)cc1-c1nc(S)nc(-c2ccccc2)c1Cl ... -1
CC1=NN(C(=O)CC(=O)Nc2ccc(Cl)cc2)C(=O)C1/N=N\c1ccc(S(=O)(=O)c2ccc(/N=N/C3C(=O)N(C(=O)CC(=O)Nc4ccc(Cl)cc4)N=C3C)cc2)cc1 (stereo not drawn) ... -1
O=C(/C=C1\Nc2ccccc2C(=O)N1c1ccccc1Cl)c1ccccc1 ... -1
NCCCNCCCCN1CCOC1=O ... -1

How was C/C(=N/NC(=S)Nc1ccccc1C)c1ccccn1 classified in this test? 1

Ok, now C1CCSCCCCSCCCCSCCCCSC1 -1

Ok, now O=C(O)c1cc2ccccc2c(/N=N/c2ccc(S(=O)(=O)Nc3ncccn3)cc2)c1O -1

---

Test system: CCRF-CEM
assay-method-text: NCI tumour cell line growth inhibition, 48 h
Calls of active or inactive are those of the source. No stated cut-off is given here; in the data, active = GI50 up to about 1.1 µM and inactive = higher.
Would you mind answering with one of these outcomes? active, inactive

A selection of reference data follows.
C[n+]1c2n(c3nc(N)[nH]c(=O)c31)C1OC(C2)C(O)C1O (stereo not given) ... inactive
CCCCN(CCCC)C(=O)C(=O)C(C(=O)c1ccc(OC)cc1)c1ccc(OC)cc1 (stereo not given) ... inactive
N/C(=N\Nc1ccc(S(N)(=O)=O)cc1)c1cnccn1 ... inactive
NC(=S)N/N=C1\CCCCC1C(O)(C(F)(F)Cl)C(F)(F)Cl (stereo not given) ... inactive
CC(C)=C/C=C1/CS(=O)(=O)C=C1C ... inactive

How was Cc1ccc(Nc2cc(=O)[nH]c(=O)[nH]2)cc1CS classified in this test? inactive

Ok, now COc1cc(/C=C2/C[C@H]3[C@@H]4CCC5=CC(=O)CC[C@]5(C)[C@H]4CC[C@]3(C)NC2=O)cc(OC)c1OC inactive

Ok, now C/C(=N/NC(=S)Nc1ccccc1C)c1ccccn1 active

Ok, now COc1ccc(/C=C/C2=NN(c3cccc(S(=O)(=O)O)c3)C3(C2)SCC(=O)N3c2nc3ccccc3s2)cc1 (stereo not given) inactive

Ok, now C/C(Cc1ccc2c(c1)OCO2)=N\N=c1\sc2ccccc2n1C inactive

---

Test system: SK-MEL-28
assay-method-text: NCI tumour cell line growth inhibition, 48 h
Active and inactive are the calls of the source. Rule as the data show it: active = GI50 up to about 1.1 µM and inactive = higher. Residues, ends and D or L forms follow the SMILES beside them. *: point of attachment. Fmoc = O=C(OCC1c2ccccc2-c2ccccc21)*; Boc = CC(C)(C)OC(=O)*
measurement-type: GI50

Some molecules with recorded GI50:
CC1=NN(C(=O)CC(=O)Nc2ccc(Cl)cc2)C(=O)C1/N=N\c1ccc(S(=O)(=O)c2ccc(/N=N/C3C(=O)N(C(=O)CC(=O)Nc4ccc(Cl)cc4)N=C3C)cc2)cc1 (centres undefined) ... > 100 µM (inactive)
Cc1ccc(NC(=O)c2ccccc2C(=O)O)cc1C ... > 100 µM (inactive)
O=c1c2cn[nH]c2nc2scc(-c3ccc(Cl)cc3)n12 ... > 100 µM (inactive)
Cc1ccc(/C=C/C(=O)c2sc(C(N)=S)nc2C)cc1 ... > 100 µM (inactive)
COC(=O)c1ccc(/C=C/c2cc(O)ccc2O)cc1 ... 13.9 µM (inactive)
O=C1c2ccccc2-c2nnc3c(c21)Cc1ccccc1C3 ... > 10 µM (inactive)

Request the reported GI50 associated with c1ccc(/N=C(/Nc2ccccc2)N2CCCCC2)cc1 74 µM (inactive)

Ok, now CC(C)(C)OC(=O)NCCCCC(NC(=O)C(Cc1c[nH]c2ccccc12)NC(=O)OCC1c2ccccc2-c2ccccc21)C(=O)N1CCCC1C(=O)NCC(N)=O (centres undefined) (Fmoc-WK(Boc)PG-NH2; configuration not given here) > 100 µM (inactive)

Ok, now CCOC1c2cc(OC)c(OC)cc2-c2ccc3ccccc3c2N1C (centres undefined) 13.4 µM (inactive)

---

Tested on: RXF 631
assay-method-text: NCI tumour cell line growth inhibition, 48 h
Active and inactive are the calls of the source. Rule as the data show it: active = GI50 up to about 1.1 µM and inactive = higher.
Form field: GI50 (one value per entry).

COc1ccc2c(c1OC)C(=O)c1cnccc1C2=O ... > 100 µM (inactive)
CN1CCCS/C1=C1/SC(=S)N(c2ccccc2)C1=O ... > 100 µM (inactive)
CC1=CC(=O)N(c2c(C)cccc2Cl)C(C)N1 (stereo unspecified) ... > 100 µM (inactive)

Short answer please: GI50, RXF 631, entry NC(CCCNc1ccc(O)cc1)C(=O)O (stereo unspecified) 54.3 µM (inactive)

Ok, now C[C@]12CCc3nonc3C1CC[C@@H]1C2CC[C@]2(C)C(=O)CCC12 (stereo partly specified) 57.8 µM (inactive)

Ok, now O=C(CCC(=O)Nc1ccc(Cl)c(Cl)c1)CC(=O)c1ccc2ccccc2c1 > 100 µM (inactive)

Ok, now CCOC1c2cc(OC)c(OC)cc2-c2ccc3ccccc3c2N1C (stereo unspecified) 22.9 µM (inactive)

---

Test system: SK-MEL-5
assay-method-text: NCI tumour cell line growth inhibition, 48 h
The source made the active and inactive calls. Cut-off read from the data, not from the text of the source: active = GI50 up to about 1.1 µM and inactive = higher.
Would you mind answering with one of these outcomes? active, inactive

A selection of reference data follows.
Cc1ccc2nnc(NS(=O)(=O)c3cc(C)c(Cl)cc3S)n2n1 ... inactive
Cn1c(=O)c(-c2ccccc2)c(O)c2ccccc21 ... inactive
O=C(c1ccccc1)C(c1ccccc1)C1(O)C(=O)Nc2ccc([N+](=O)[O-])cc21 (stereo not given) ... inactive
Cc1cccc(Nc2nc3ccccc3nc2NS(=O)(=O)c2ccc(N)cc2)c1 ... inactive
[N-]=[N+]=Nc1ccc2c(c1)Sc1ccccc1N2CCCCN1CCN(Cc2ccc(C(=O)c3ccc(CSCC(N)C(=O)O)cc3)cc2)CC1 (stereo not given) ... inactive
Cc1cccc(C)c1NC(=O)/C(Cl)=C(/Cl)C(=O)O ... inactive

How was COc1ccc(-c2sc(Br)c3c2C(=O)C2OC(=O)NC32)cc1OC (stereo not given) classified in this test? inactive

Ok, now O=C1/C(=C/c2cc3c(=O)c4ccccc4sc3s2)NC(=S)N1c1ccccc1 inactive

Ok, now O=C(NNC(=S)Nc1ccc(Cl)cc1)c1cc(-c2ccccc2)nc2ccccc12 inactive

Ok, now O=C(N[C@@H](Cc1ccccc1)B(O)O)[C@H](Cc1cccc2ccccc12)NC(=O)N1CCOCC1 active

---

Tested on: SN12C
assay-method-text: NCI tumour cell line growth inhibition, 48 h
The source made the active and inactive calls. No stated cut-off is given here; in the data, active = GI50 up to about 1.1 µM and inactive = higher.
Would you mind answering with one of these outcomes? True = active, False = inactive

A selection of reference data follows.
C1CCSCCCCSCCCCSCCCCSC1 ... False
C[C@@H](c1ccccc1)n1c(N)c(-c2ccccn2)c2ccc([N+](=O)[O-])cc2c1=O ... False
CC(=O)/C(=C/c1ccccc1F)C(=O)c1ccccc1 ... False
CC1=NN(C(=O)CC(=O)Nc2ccc(Cl)cc2)C(=O)C1/N=N\c1ccc(S(=O)(=O)c2ccc(/N=N/C3C(=O)N(C(=O)CC(=O)Nc4ccc(Cl)cc4)N=C3C)cc2)cc1 (stereo not drawn) ... False
O=C1NI(C#Cc2ccccc2)c2ccccc21 ... False
CN(C(=O)c1ccc(Cl)cc1)C(=S)N1CCN(c2ccccn2)CC1 ... False

How was [O-][n+]1c2cc3c(cc2[n+]([O-])c2c(O)cccc21)CN(CCN1CCOCC1)C3 classified in this test? False

Ok, now COC(=O)c1ccc2c(c1)CC1(C2)Cc2ccccc2C1=O (stereo not drawn) False

Ok, now O=C(O)C1CSC2(CCCN(Cc3ccccc3)C2)N1 (stereo not drawn) False

Ok, now Fc1cccc(Cl)c1C1SCc2nc3ccccc3n21 (stereo not drawn) False

Ok, now Nc1nc(Cl)cc(NCCO)n1 False
